Taken from paper PMC12040169.

- measurement protocol: in vitro
- protocol conditions: human, hela cells, % viability
I'd appreciate it if you could supply viability at 28.5 h, 10 µM values for the items below.
Expressed in %, but write only the number.

Entry under review: COc1ccc(N2CC(C(=O)Nc3ccc(C(=O)O)cc3)CC2=O)cc1 (stereo not drawn) [CBK268782] . Reported viability at 28.5 h, 10 µM?
88

Give its viability at 28.5 h, 10 µM value. Item: COc1cncc(C(NC(=O)c2ccc3c(c2)CCC3)[C@H]2C[C@H](O)C2)c1 (stereo partly drawn) [CBK307646]
105

What value of measured viability at 28.5 h, 10 µM is listed for Cc1ccc(C)c(NC(=S)NCCc2ccc(S(N)(=O)=O)cc2)c1 [CBK264879] ?
100

Return reported viability at 28.5 h, 10 µM; argument: COc1cc(CNC(C)c2ccccc2)ccc1OCC(N)=O (stereo not drawn) [CBK269982C]
92.8

viability at 28.5 h, 10 µM for Nc1nnc(C(F)(F)F)o1 [CBK023457] ?
113

Any idea what viability at 28.5 h, 10 µM was measured for CCn1c(COc2ccc(C(=O)O)cc2)nc2ccccc21 [CBK267647] ?
91.7

Would you kindly share the measured viability at 28.5 h, 10 µM for CC(=O)Nc1cccc(-c2cnc(N)c(N3CCN(C)CC3)n2)c1 [CBK063361] ?
107

Would you mind telling me what viability at 28.5 h, 10 µM value was observed for CCOc1ccc2ccccc2c1CNCc1cccnc1 [CBK269934C] ?
91.8

Value lookup for viability at 28.5 h, 10 µM; key = CCCn1c(SCC(=O)N2CCOCC2)nc2ccc(Br)cc2c1=O [CBK305929]
83

GET /values?readout=viability at 28.5 h, 10 µM&item= CC(=O)Nc1ccc2nc(NC(=O)c3ccc4c(c3)OCCO4)sc2c1 [CBK287571]
101

Can you look up the measured viability at 28.5 h, 10 µM of O=C(NCC(c1ccccc1)c1ccccc1)N1CCCCC1CO (stereo not drawn) [CBK156186] for me?
93.5

// query viability at 28.5 h, 10 µM value for entry CC(=O)N1CCCc2cc(C(O)CN(C)Cc3ccccc3)ccc21 (stereo not drawn) [CBK282149]
88.5

Which measured viability at 28.5 h, 10 µM value corresponds to CC(=O)Nc1cccc(-c2nccnc2N[C@H](CO)C(C)C)c1 [CBK036611] ?
97

What does the record list as viability at 28.5 h, 10 µM for Cn1cc(CN2CCOC(c3nc(C(C)(C)C)cs3)C2)nn1 (stereo not drawn) [CBK304783] ?
90.5

What does the data say about its viability at 28.5 h, 10 µM? Entry: CCCS(=O)(=O)Nc1nccnc1-c1cccs1 [CBK050763]
89.4

Name the recorded viability at 28.5 h, 10 µM for CN(C(=O)c1c[nH]nc1-c1ccc(CNC(=O)c2cccc(Cl)c2)cc1)c1ccccc1 [CBK285597] .
79.9

Can you share its viability at 28.5 h, 10 µM? I mean this compound: Cc1nn(C)c(C)c1CN(C(=O)C(C)Oc1cccc(F)c1)C1CC1 (stereo not drawn) [CBK281479]
93.7

Which viability at 28.5 h, 10 µM value is on record for COC(=O)c1c(C)oc2cc(Br)c(OCC(=O)c3ccc(Cl)cc3)cc12 [CBK264946] ?
83.5
